Origin of values: PubChem BioAssay (NCI)

test system: NCI/ADR-RES ovarian; test: NCI tumour cell line growth inhibition, 48 h
Quick reference for TGI among some compounds

Worked set:
CC(=O)Oc1ccn2nc(C)c(Br)c2c1 ... > 100 µM
c1ccc2c(c1)cc1ccc3cccc4ccc2c1c34 ... > 100 µM
N#Cc1cc(S(=O)(=O)Nc2nc3ccccc3o2)c(SCc2ccccc2)cc1Cl ... 75.8 µM

The compound listed as O=C(O)c1ccc(SSc2ccc(C(=O)O)cn2)nc1 shows TGI equal to > 100 µM

The compound listed as Cc1cn(S(=O)(=O)c2ccccc2)c2c(OCc3ccccc3)cc(NC(=O)c3cc4cc([N+](=O)[O-])ccc4s3)cc12 shows TGI equal to > 100 µM

The compound listed as C=C1[C@@H]2CCC3[C@]4(C)C(CC[C@@]5(C)C(=O)O[C@H](O)[C@@H]45)[C@H](O)[C@]3(C2)[C@H]1OC1OC(CO)C(O)C(O)C1O (some centres undefined) shows TGI equal to > 50 µM

The compound listed as COc1cc2c(cc1OCc1ccccc1)NC(=O)[C@@H]1CCCN1C2=O shows TGI equal to > 100 µM

The compound listed as O=C(c1ccc([N+](=O)[O-])cc1)N1CCCC1 shows TGI equal to > 100 µM

The compound listed as COc1ccc(-c2cc3cc(Cl)cc(Cl)c3oc2=O)cc1OC shows TGI equal to > 100 µM

The compound listed as O=C(C(=C(I)I)c1ccccc1)c1ccccc1 shows TGI equal to > 100 µM

----------
NCI-H460 lung: reported GI50 for various compounds.

Worked set:
COc1cc(CNc2oc(-c3ccccc3)c(-c3ccccc3)c2C#N)cc(CN2CCN(C)CC2)c1O ... 1890 nM
O=C(Nc1cccc(C(F)(F)F)c1)Oc1ccc(Cl)c2cccnc12 ... 1010 nM

Proceeding to the next compound to report its GI50.
The compound listed as CN(C)CCCNc1nc2ccccc2c2[nH]c3ccccc3c12 shows GI50 equal to 737 nM

----------
test system: SK-OV-3 ovarian; assay: NCI tumour cell line growth inhibition, 48 h; in the data active means GI50 below about 0.43 µM; inactive means the rest
Form entry, call: pick from yes = active, no = inactive

Some solved cases for reference:
CO/N=C(\COc1ccc2oc(-c3ccccc3)cc(=O)c2c1)c1ccc(F)cc1 ... no
CC/C(=C/c1ccc(OC)cc1OC)[N+](=O)[O-] ... no
CCN(CC)CCCCNc1c2ccc(Cl)cc2nc2ccc(OC)cc12 ... no
Nc1cccc2c1C(=O)c1cccc(NC(=O)c3ccccc3)c1C2=O ... yes
C1=CCCC=CCC1.C[PH+](C)C.C[PH+](C)C.C[PH+](C)C.[Cl-].[Ir] ... no

Query: Per the records of this test, what outcome belongs to C[N+](C)=c1ccc2nc3c(cc(NCCCNc4cc5oc6cc(=[N+](C)C)ccc-6nc5c5ccccc45)c4ccccc43)oc-2c1 ?
Reply: no

Query: Per the records of this test, what outcome belongs to N#CC1=C(N)NC(=O)NC12Nc1ccccc1N2 ?
Reply: no

Query: Per the records of this test, what outcome belongs to CC[PH+](CC)CC.[Cl][Au] ?
Reply: no

Query: Per the records of this test, what outcome belongs to COc1ccc2nc3cc(Cl)ccc3c(Nc3cc(CN4CCCC4)c(O)c(CN4CCCC4)c3)c2n1 ?
Reply: no

Query: Per the records of this test, what outcome belongs to COc1cc(CNc2oc(-c3ccccc3)c(-c3ccccc3)c2C#N)cc(CN2CCN(C)CC2)c1O ?
Reply: no
